# ASSAYED_TARGET: PSMA-expressing C4-2 cells (Homo sapiens)
# Construct: PSMA-expressing C4-2 cells (ATCC, Cat. No. CRL-3314) were cultured in RPMI-1640; host or cells: C4-2 cells
# Sequence (Q04609 whole entry): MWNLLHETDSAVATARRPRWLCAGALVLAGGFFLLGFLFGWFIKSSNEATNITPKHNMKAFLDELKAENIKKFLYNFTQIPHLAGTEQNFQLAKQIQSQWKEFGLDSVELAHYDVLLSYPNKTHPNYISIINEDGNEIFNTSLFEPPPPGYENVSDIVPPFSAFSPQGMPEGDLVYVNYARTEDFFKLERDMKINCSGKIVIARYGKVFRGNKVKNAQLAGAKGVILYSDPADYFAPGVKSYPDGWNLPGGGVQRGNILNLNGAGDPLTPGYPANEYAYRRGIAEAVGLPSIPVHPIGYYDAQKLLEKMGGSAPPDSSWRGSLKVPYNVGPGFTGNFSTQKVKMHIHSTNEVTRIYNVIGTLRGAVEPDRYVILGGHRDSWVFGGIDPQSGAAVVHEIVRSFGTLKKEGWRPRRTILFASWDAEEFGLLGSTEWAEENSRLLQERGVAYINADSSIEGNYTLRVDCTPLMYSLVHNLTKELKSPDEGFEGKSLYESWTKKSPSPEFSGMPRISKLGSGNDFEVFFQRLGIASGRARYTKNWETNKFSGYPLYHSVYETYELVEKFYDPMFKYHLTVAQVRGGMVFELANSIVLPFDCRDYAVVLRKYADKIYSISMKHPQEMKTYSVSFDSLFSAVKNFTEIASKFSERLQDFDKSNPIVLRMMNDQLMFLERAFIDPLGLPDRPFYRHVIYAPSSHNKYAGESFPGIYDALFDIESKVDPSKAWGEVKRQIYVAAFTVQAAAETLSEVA
# MEASUREMENT_DESCRIPTION: FACS binding assay (competition with 50 nM PSM-0183)
# CONDITION_NOTES: FACS binding, C4-2 cells, competition with 50 nM PSM-0183; category; read-out: pIC50 [C4-2] CAT (converted)
Numbered stars: 1 amine (or outer) side, 2 acyl side, 3 side chain; on linkers, the order of the positions; unused ones are H or OH. Bridge positions count the residues as written; N and C are the ends. Square brackets hold non-standard residues; d marks the D form. Peptide text beside a SMILES is read from it. * marks the point of attachment. X9 = C=C(N([C@@H](Cc1ccc(Cl)cc1)C(=O)[*:2])[*:1])C(C)(C)NC(=O)[C@@H](NC(C)=O)[C@@H](C)O; DOTA = O=C(O)CN1CCN(CC(=O)O)CCN(CC(=O)*)CCN(CC(=O)O)CC1; Trp(5-Br) = N[C@@H](Cc1c[nH]c2ccc(Br)cc12)C(=O)O; Phe(3-CF3) = N[C@@H](Cc1cccc(C(F)(F)F)c1)C(=O)O; Arg(Me) = CNC(=N)NCCC[C@H](N)C(=O)O; X1 = O=C(CC1CCN([*:1])CC1)[*:2]; Cit = NC(=O)NCCC[C@H](N)C(=O)O; Lys(Me) = CNCCCC[C@H](N)C(=O)O; Tle = CC(C)(C)[C@H](N)C(=O)O; Nle = CCCC[C@H](N)C(=O)O; Aib = CC(C)(N)C(=O)O; βAla = NCCC(=O)O
# Lookup of reported IC50 keyed by entry

Some solved entries appear below for comparison.
[
  {
    "COMPOUND": "C=C(N[C@@H](Cc1ccc(Cl)cc1)C(=O)N[C@H]1CSSC[C@@H](C(=O)N[C@H](C(=O)N[C@H](C(N)=O)[C@@H](C)O)C(C)(C)C)NC(=O)[C@H](CCCNC(=N)N)NC(=O)C(C)(C)NC(=O)[C@H](CCCNC(N)=O)NC(=O)[C@H](CCCCN)NC1=O)C(C)(C)NC(=O)[C@@H](NC(C)=O)[C@@H](C)O [PSM-0240] (H-[X9]CK[Cit][Aib]RC[Tle]T-NH2; disulfide 2-7)",
    "IC50": "< 200 nM"
  },
  {
    "COMPOUND": "CC(=O)N[C@H](C(=O)NC(C)(C)C(=O)N[C@@H](Cc1cccc(C(F)(F)F)c1)C(=O)N[C@H]1CSSC[C@@H](C(=O)N[C@H](C(=O)N[C@H](C(N)=O)[C@@H](C)O)C(C)(C)C)NC(=O)[C@H](CC(N)=O)NC(=O)C(C)(C)NC(=O)[C@H](CCCNC(=N)N)NC(=O)[C@H](CCCCN)NC1=O)[C@@H](C)O [PSM-0264] (Ac-T[Aib][Phe(3-CF3)]CKR[Aib]NC[Tle]T-NH2; disulfide 4-9)",
    "IC50": "< 200 nM"
  },
  {
    "COMPOUND": "CCCC[C@H](NC(=O)[C@@H]1CSSC[C@H](NC(=O)[C@H](Cc2ccccc2)NC(=O)[C@H](C)NC(=O)[C@@H](NC(C)=O)[C@@H](C)O)C(=O)N[C@@H](CCCCN)C(=O)N[C@@H](CCCNC(=N)N)C(=O)N[C@@H](CCC(=O)O)C(=O)N[C@@H](CC(N)=O)C(=O)N1)C(=O)N[C@@H](C(=O)N[C@H](CC(=O)O)C(N)=O)[C@H](C)O [PSM-0197] (Ac-TAFCKRENC[Nle][dT][dD]-NH2; disulfide 4-9)",
    "IC50": "< 200 nM"
  },
  {
    "COMPOUND": "CNCCCC[C@@H]1NC(=O)[C@@H](NC(=O)[C@H](Cc2c[nH]c3ccc(Br)cc23)NC(=O)C(C)(C)NC(=O)[C@@H](NC(=O)CC2CCN(C(=O)CN3CCN(CC(=O)O)CCN(CC(=O)O)CCN(CC(=O)O)CC3)CC2)[C@@H](C)O)CSSC[C@@H](C(=O)N[C@H](C(=O)N[C@H](C(N)=O)[C@@H](C)O)C(C)(C)C)NC(=O)[C@H](CC(N)=O)NC(=O)C(C)(C)NC(=O)[C@H](CCCNC(=N)NC)NC1=O [PSM-0206] ({DOTA}-[X1]T[Aib][Trp(5-Br)]C[Lys(Me)][Arg(Me)][Aib]NC[Tle]T-NH2; disulfide 5-10)",
    "IC50": "1260 to 3160 nM"
  }
]

Kindly review the next compound as well.
q: Given the compound C[C@@H](O)[C@H](NC(=O)[C@@H](NC(=O)[C@@H]1CSSC[C@H](NC(=O)[C@H](Cc2ccccc2)NC(=O)C(C)(C)NC(=O)[C@@H](NC(=O)CCNC(=O)CN2CCN(CC(=O)O)CCN(CC(=O)O)CCN(CC(=O)O)CC2)[C@@H](C)O)C(=O)N[C@@H](CCCCN)C(=O)N[C@@H](CCCNC(=N)N)C(=O)NC(C)(C)C(=O)N[C@@H](CC(N)=O)C(=O)N1)C(C)(C)C)C(N)=O [PSM-0209] ({DOTA-βAla}-T[Aib]FCKR[Aib]NC[Tle]T-NH2; disulfide 4-9) , what is its reported IC50?
a: < 200 nM
